- Tested on: MPNST multicellular tumor spheroids, viability % test/control
- assay-explanation: Anticancer human tumor MPNST cell line growth inhibition;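 also: spheroids exposed to agents for seven days after three days of growth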;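 as to viability, T/C: luminescence signal used as surrogate for viable cell amount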
- condition-summary: second compound 0.0949 µM; first compound 10 µM; stronger effect = lower value
Field: label. Allowed values: Y (viability, T/C < 30%) or N (viability, T/C >= 30%).

Decide: viability, T/C of [2H]c1nc(C)nc([2H])c1-c1cc(NC[C@@H](C)c2cccc3c(C(=O)NC)ccnc23)ncn1 + CC[C@@]1(O)C(=O)OCc2c1cc1n(c2=O)Cc2cc3c(CN(C)C)c(O)ccc3nc2-1 strictly below 30%?
N

Decide: viability, T/C of Cc1cc(C)c(CNC(=O)c2cc(-c3ccc(CN4CCOCC4)cc3)cc3c2cnn3C2CCCC2)c(=O)[nH]1 + CC[C@@]1(O)C(=O)OCc2c1cc1n(c2=O)Cc2cc3c(CN(C)C)c(O)ccc3nc2-1 strictly below 30%?
N

Decide: viability, T/C of CC1COCCN1c1cc(-c2ccnn2C)c2ccnc(-c3ccn[nH]3)c2n1 (stereo unspecified) + CC[C@@]1(O)C(=O)OCc2c1cc1n(c2=O)Cc2cc3c(CN(C)C)c(O)ccc3nc2-1 strictly below 30%?
Y

Decide: viability, T/C of COc1ccc([C@@H](O)c2cc(-c3ncnc4cc(N5CCOCC5)ccc34)c(F)cc2Cl)nn1 + CC[C@@]1(O)C(=O)OCc2c1cc1n(c2=O)Cc2cc3c(CN(C)C)c(O)ccc3nc2-1 strictly below 30%?
Y

Decide: viability, T/C of CC(C)n1c(=O)n(C)c2cnc3cc(F)c(-c4ccc(OCCCN5CCCCC5)nc4)cc3c21 + CC[C@@]1(O)C(=O)OCc2c1cc1n(c2=O)Cc2cc3c(CN(C)C)c(O)ccc3nc2-1 strictly below 30%?
N

Decide: viability, T/C of COc1cc(C)[nH]c(=O)c1CN1CCc2c(Cl)cc(C(OC)C3COC3)c(Cl)c2C1=O (stereo unspecified) + CC[C@@]1(O)C(=O)OCc2c1cc1n(c2=O)Cc2cc3c(CN(C)C)c(O)ccc3nc2-1 strictly below 30%?
N

* * *

- Test system: MPNST multicellular tumor spheroids, viability % test/control
- assay-explanation: Anticancer human tumor MPNST cell line growth inhibition;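 also: spheroids exposed to agents for seven days after three days of growth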;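 as to viability, T/C: luminescence signal used as surrogate for viable cell amount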
- condition-summary: second compound 3.16 µM; first compound 3 µM; stronger effect = lower value
measured-parameter: viability, T/C (%)
Write it as a number; the unit % goes unstated.

Here's what some known entries look like.
molecule | quantitative-result
CNCc1ccc(-c2cc(-c3nc(-c4ccc(S(=O)(=O)C(C)C)cc4)cnc3N)on2)cc1 + Cn1nnc2c(C(N)=O)ncn2c1=O | 61.1
O=C(c1cc(Cc2n[nH]c(=O)c3ccccc23)ccc1F)N1CCN(C(=O)C2CC2)CC1 + Cn1nnc2c(C(N)=O)ncn2c1=O | 77.2
Cn1ncnc1[C@H]1c2n[nH]c(=O)c3cc(F)cc(c23)N[C@@H]1c1ccc(F)cc1 + Cn1nnc2c(C(N)=O)ncn2c1=O | 52.7

Would you kindly look at the next entry?
What value of viability, T/C has been recorded for this entry: Cc1sc2c(c1C)C(c1ccc(Cl)cc1)=NC(CC(=O)Nc1ccc(O)cc1)c1nnc(C)n1-2 (centres undefined) + Cn1nnc2c(C(N)=O)ncn2c1=O
45.8

* * *

- System: MPNST multicellular tumor spheroids, viability % test/control
- assay-explanation: Anticancer human tumor MPNST cell line growth inhibition;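 also: spheroids exposed to agents for seven days after three days of growth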
- condition-summary: curve of first compound; second compound 100 µM
measured-parameter: IC50 (nM)
Write it as a number; the unit nM goes unstated.

Here's what some known entries look like.
molecule | IC50 [nM]
Cc1sc2c(c1C)C(c1ccc(Cl)cc1)=NC(CC(=O)Nc1ccc(O)cc1)c1nnc(C)n1-2 (stereo not given) + Cn1nnc2c(C(N)=O)ncn2c1=O | 678
COc1ccc([C@@H](O)c2cc(-c3ncnc4cc(N5CCOCC5)ccc34)c(F)cc2Cl)nn1 + Cn1nnc2c(C(N)=O)ncn2c1=O | 1580
Cn1ncnc1[C@H]1c2n[nH]c(=O)c3cc(F)cc(c23)N[C@@H]1c1ccc(F)cc1 + Cn1nnc2c(C(N)=O)ncn2c1=O | 27
CC1COCCN1c1cc(-c2ccnn2C)c2ccnc(-c3ccn[nH]3)c2n1 (stereo not given) + Cn1nnc2c(C(N)=O)ncn2c1=O | 182

Would you kindly look at the next entry?
What value of IC50 has been recorded for this entry: O=C(c1cc(Cc2n[nH]c(=O)c3ccccc23)ccc1F)N1CCN(C(=O)C2CC2)CC1 + Cn1nnc2c(C(N)=O)ncn2c1=O
2850

# credit: PubChem BioAssay AID1845205
